B1: TPR t1 (parent)
chain: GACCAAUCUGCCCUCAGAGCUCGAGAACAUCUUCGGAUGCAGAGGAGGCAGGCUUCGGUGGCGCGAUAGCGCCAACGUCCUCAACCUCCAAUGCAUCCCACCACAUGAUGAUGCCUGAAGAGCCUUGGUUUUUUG

Variants of: B1
ASSAY: polymerase ribozyme fitness, log enrichment relative to wild type (log ratio); higher = more active; in vitro selection for triplet polymerase activity
Below, each of the variants is paired with its reported polymerase ribozyme fitness (log ratio) value.

{"columns": ["MUTATION KEY", "polymerase ribozyme fitness (log ratio)"],
 "data": [
  ["G61U C98A", -3.78],
  ["A27U G61U C102U U109G", -5.55],
  ["C40A G47A G60A A75U C86U C97U C123A U132A", -1.57],
  ["C13A C72G A83G A121U C123U", -0.305],
  ["C56G G77U C115G", -3.16],
  ["G10U G71A A103U C114U", -4.96],
  ["A46U G60C U96C C123G", 0.53],
  ["U9G G48U", -1.27],
  ["A2U G60A A91G C124U", -3.61],
  ["G17A A43G", -3.39],
  ["C49G G61A", -0.914],
  ["A6G C12A A50G G120A", 2.01],
  ["C11A C49G G63C C79A", -6.2],
  ["C22U A50C C124A", -3.54],
  ["G39U G69U C73A C124U", 0.671],
  ["C28A G39U A83C C123U U133A", -4]
]}
